Values from patent US20240343761A1

# System tested: hAPJ receptor (Homo sapiens, UniProt P35414)
# Construct: expressed in transfected cells; host or cells: HEK293, transient transfection with PEI
# Sequence (P35414 whole entry): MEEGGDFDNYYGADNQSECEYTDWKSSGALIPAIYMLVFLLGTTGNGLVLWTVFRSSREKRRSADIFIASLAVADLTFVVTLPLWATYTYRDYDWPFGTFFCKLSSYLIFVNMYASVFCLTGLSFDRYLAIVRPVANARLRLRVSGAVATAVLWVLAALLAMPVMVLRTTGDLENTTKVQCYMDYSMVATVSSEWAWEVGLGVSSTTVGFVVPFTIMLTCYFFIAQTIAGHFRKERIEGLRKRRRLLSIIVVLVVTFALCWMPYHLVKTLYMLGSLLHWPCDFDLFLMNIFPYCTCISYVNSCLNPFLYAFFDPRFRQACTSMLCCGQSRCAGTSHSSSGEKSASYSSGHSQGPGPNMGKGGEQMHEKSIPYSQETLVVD
# Test name: BRET-based β-arrestin2 recruitment assay in HEK293 cells
# Type: cell-based
# Condition description: HEK293; Table V; read-out: ß-arr2 Emax
Give measured Emax for each item. Keep answers brief.
Numbers only, in %.

Look at each compound and report its Emax.
1. CCCC[C@H](NC(=O)[C@@H]1CCCN1C(=O)CNC(=O)[C@H](CCCCN)NC(=O)[C@@H]1CCNCC=CC[C@H](NC(=O)[C@H](CCCNC(=N)N)NC(=O)[C@@H]2CCC(=O)N2)C(=O)N[C@@H](CCCNC(=N)N)C(=O)N[C@@H](CC(C)C)C(=O)N[C@@H](CO)C(=O)N1)C(=O)N1CCC[C@H]1C(=O)N[C@@H](Cc1ccccc1)C(=O)O [Compound 18, Pyr-R-c[X-R-L-S-Alb]c-K-G-P-Nle-P-F]
2. CCCC[C@H](NC(=O)[C@@H]1CCCN1C(=O)CNC(=O)[C@H](CCCCN)NC(=O)[C@@H]1CC=CC[C@H](NC(=N)N)C(=O)N[C@@H](CCCNC(=N)N)C(=O)N[C@@H](CC(C)C)C(=O)N[C@@H](CO)C(=O)N1)C(=O)N1CCC[C@H]1C(=O)N[C@@H](Cc1ccccc1)C(=O)O [Compound 23, Guanidine-c[X-R-L-S-X]c-K-G-P-Nle-P-F]
3. CCCC[C@H](NC(=O)[C@@H]1CCCN1C(=O)CNC(=O)[C@H](CCCCN)NC(=O)[C@@H]1Cc2cncn2CC=CC[C@H](NC(=O)[C@H](CCCNC(=N)N)NC(=O)[C@@H]2CCC(=O)N2)C(=O)N[C@@H](CCCNC(=N)N)C(=O)N[C@@H](CC(C)C)C(=O)N[C@@H](CO)C(=O)N1)C(=O)N1CCC[C@H]1C(=O)N[C@@H](Cc1ccccc1)C(=O)O [Compound 15, Pyr-R-c[X-R-L-S-Alh]c-K-G-P-Nle-P-F]
4. CC(C)C[C@@H]1NC(=O)[C@H](CCCNC(=N)N)NC(=O)[C@@H](N)CC=CC[C@@H](C(=O)N[C@@H](CCCCN)C(=O)NCC(=O)N2CCC[C@H]2C(=O)N[C@H](Cc2ccc(O)cc2)C(=O)O)NC(=O)[C@H](CO)NC1=O [Compound 45, NH2-c[X-R-L-S-X]c-K-G-P-(D-Tyr)]
5. CCCC[C@H](NC(=O)[C@@H]1CCCN1C(=O)CNC(=O)[C@H](CCCCN)NC(=O)[C@@H]1CCCC[C@H](NC(=O)[C@H](CCCNC(=N)N)NC(=O)[C@@H]2CCC(=O)N2)C(=O)N[C@@H](CCCNC(=N)N)C(=O)N[C@@H](CC(C)C)C(=O)N[C@@H](CO)C(=O)N1)C(=O)N1CCC[C@H]1C(=O)N[C@@H](Cc1ccccc1)C(=O)O [Compound 13, Pyr-R-c*[X-R-L-S-X]c-K-G-P-Nle-P-F]
6. CC(C)C[C@@H]1NC(=O)[C@H](CCCNC(=N)N)NC(=O)[C@@H](N)CC=CC[C@@H](C(=O)N[C@@H](CCCCN)C(=O)NCC(=O)N2CCC[C@H]2C(=O)N[C@H](Cc2cccc3ccccc23)C(=O)O)NC(=O)[C@H](CO)NC1=O [Compound 42, NH2-c[X-R-L-S-X]c-K-G-P-(D-1Nal)]

86
92
115
54
75
70
